inhibition reference
Molecular target: Cytochrome P450 2C19 (Homo sapiens)
Assay: blockers of cytochrome P450 2C19 activity – biochemical, luminescence, ADME assay, primary screen (AID 778);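 note: plate controls were negative control wells for no effect and 2.5 mM tranylcypromine positive control for full effect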
Conditions: CYP2C19 Supersomes, luciferin-H EGE luminescence, 30 min; at 5 µM; stronger effect = higher value
Among all 96,000 compounds or so, about 20,000 (21%) were called active. Not all results are given here.
I only need the number, in %, no unit after it.

Worked examples follow.
- compound: "CN(Cc1nc2ccccc2c(=O)[nH]1)Cc1cc(=O)oc2ccc3ccccc3c12"
  inhibition (%): 2.9
- compound: "Cc1c(NC(=O)/C=C/C(=O)O)cccc1[N+](=O)[O-]"
  inhibition (%): 26.2
- compound: "Cc1nn(C(=O)c2ccoc2C)c(N)c1-c1ccccc1"
  inhibition (%): 29.7
- compound: "Cc1cc(Cl)c(S(=O)(=O)NCC2CCCO2)cc1OCC(N)=O (configuration not stated)"
  inhibition (%): 1
- compound: "CC(=O)Nc1ccc(NC(=O)c2sc3nc4c(c(-c5ccc(C)cc5)c3c2N)CCC4)cc1"
  inhibition (%): -6.7
- compound: "CC(C)Oc1ccc(C(=O)Nc2cc(=O)n(C)c(=O)n2C)cc1"
  inhibition (%): 12.2

Now turn to the next compound.
Supply recorded inhibition for `CN(C)/C=C(\C#N)C(=O)c1cccnc1Oc1cccc(F)c1` here.
40.5

Taken from PubChem BioAssay AID778.
